Task for the reader: assign each of the following compounds its reported Ki.
Target or system: Trypsin (Homo sapiens, UniProt P07477+P07478+P35030)
Assay details: Inhibition of human trypsin measured for 30 mins
Assay type: protein assay
Entry rule: numbers only, all in µM.

# Ki lookup, item CCS(=O)(=O)c1ccc2cc1CNC(=O)[C@H](Nc1ccc3c(N)nccc3c1)c1ccc(c(C)c1)CCCC(=O)N2
2.7

Using the record for CCS(=O)(=O)c1ccc2cc1CNC(=O)[C@H](Nc1ccc3c(N)nccc3c1)c1ccc(cc1)CCCC(=O)N2 , report its Ki.
3.6

Report Ki for CCS(=O)(=O)c1ccc2cc1CNC(=O)[C@H](Nc1ccc(C(=N)N)cc1)c1ccc(cc1)CCCC(=O)N2 please.
0.058

If you can, please state the reported Ki value of CC(C)S(=O)(=O)c1ccc2cc1CNC(=O)[C@H](Nc1ccc3c(N)nccc3c1)c1ccc(cc1)CCCC(=O)N2 .
3

Provenance of the data: ChEMBL document CHEMBL3593168
